# Tested on: KM12 colon
# PROCEDURE SUMMARY: NCI tumour cell line growth inhibition, 48 h
I'd appreciate it if you could supply TGI values for the items below.

Example compounds with recorded TGI:
{"COMPOUND": "CCOC(=O)c1ccc(N=C/C=C(\\Nc2ccc(C(=O)OCC)cc2)c2ccc3ccccc3c2)cc1", "TGI": "48.2 µM"}
{"COMPOUND": "CC(C)(C)c1cc(C2COC(=O)COCCOCC(=O)OCCOCCO2)cc(C(C)(C)C)c1O (stereo not drawn)", "TGI": "> 100 µM"}
{"COMPOUND": "CC1CCN(c2nnc(Cl)cc2C(=O)c2ccccc2)CC1", "TGI": "52.6 µM"}
{"COMPOUND": "COC(=O)C1Cc2c([nH]c3ccccc23)-c2[nH]c3ccccc3c2CC(NC(C)=O)C(=O)NCC(=O)N1 (stereo not drawn)", "TGI": "> 100 µM"}
{"COMPOUND": "CC1OC(OC2C(CO)OC(O[C@H]3CC[C@@]4(C)C(=CC[C@H]5[C@@H]6C[C@@H]7O[C@](O)(CC[C@@H](C)COC8OC(CO)C(O)C(O)C8O)[C@@H](C)[C@@H]7[C@@]6(C)CC[C@@H]54)C3)C(OC3OC(C)C(O)C(O)C3O)C2O)C(O)C(O)C1O (stereo partly drawn)", "TGI": "6.85 µM"}

// each compound listed below needs its TGI
1. Cc1nc2cc(O)c(O)cc2cc1Oc1ccc(NC(=O)Nc2ccc(Cl)c(Cl)c2)cc1
2. O=C1c2cc3c(cc2-c2c1c1ccc([N+](=O)[O-])cc1c(=O)n2CCCCl)OCO3
3. O=C(/C=C/c1ccccc1F)C(c1ccccc1)c1ccccc1
4. Cc1cc(S(N)(=O)=O)c(S/C(=N\NS(=O)(=O)c2ccc(Cl)cc2)c2ccc(Cl)cc2)cc1Cl
5. CCOc1ccc(N=NC2C(=O)N(C(=O)CC(=O)Nc3ccc(Cl)cc3)N=C2C)cc1 (stereo not drawn)
6. CCOC(=O)[C@H]1Nc2ccc(O)cc2C2c3ccccc3CC21 (stereo partly drawn)

Completion:
32 µM
> 100 µM
15 µM
> 100 µM
> 100 µM
> 100 µM

// each compound listed below needs its TGI
1. CC(=O)OCCOCNC(=S)N/N=C(\C)c1ccco1
2. COC(=O)c1oc2c(C(=O)/C=C/c3ccc(OC)cc3)c(OCCCN3CCCCC3)ccc2c1C
3. O=Nc1c(-c2cccc([N+](=O)[O-])c2)nc2ncccn12
4. N#Cc1ccc(Nc2nc3nc[nH]c3c(=O)[nH]2)cc1
5. COc1cc(/C=C\c2ccc(SC)cc2)cc(OC)c1OC

Completion:
1: > 100 µM; 2: 3.66 µM; 3: 26.8 µM; 4: > 100 µM; 5: 2.8 µM

// each compound listed below needs its TGI
1. COc1cccc(-n2nnc3c(N)nc(N)nc32)c1
2. CCOC(=O)/C(O)=C(\C=N\C(=S)Nc1ccc(Cl)c(Cl)c1)C(=O)OCC
3. NC(=O)NC(=O)CI
4. NS(=O)(=O)c1ccc(-n2nc(-c3ccc(Cl)cc3)cc2C2=CC(=O)C=CC2=O)cc1
5. CC(C)(C)[Si](C)(C)OCC1OC(n2ccc(=O)[nH]c2=O)C(O[Si](C)(C)C(C)(C)C)/C1=N/O (stereo not drawn)
6. CCCCCCCCCCCCC(Br)C(=O)SCCNC(=O)CCNC(=O)[C@@H](O)C(C)(C)COP(=O)(O)OP(=O)(O)OCC1OC(n2cnc3c(N)ncnc32)C(O)C1OP(=O)(O)O (stereo partly drawn)
7. Cc1ccccc1NC(=O)c1[nH]c(=S)nc(N)c1-c1ccccc1C

Completion:
> 100 µM
> 100 µM
35.5 µM
36.1 µM
> 22.6 µM
> 56.5 µM
> 100 µM

// each compound listed below needs its TGI
1. O=S1(=O)CSc2ccc3ccccc3c2-c2c1ccc1ccccc21
2. CCC(=O)O[C@@H]1C2C(OC(C)=O)C34COC(C)([C@@H]3C3C(C[C@]3(C)OC(C)=O)[C@@H](OC(=O)c3ccccc3)C4=O)[C@H](OC(C)=O)[C@@]2(OC(C)=O)C[C@@H]1C (stereo partly drawn)
3. Fc1ccc(Nc2nc(Nc3ccc(-c4nc5ccccc5[nH]4)cc3)nc(N3CCCC3)n2)cc1
4. Cn1cccc1-c1cc(-c2ccc(Br)cc2)nc(N)c1C#N
5. CCC(C#N)N(Cc1cccc(CN(C(C)=O)C(C#N)CC)c1)C(C)=O (stereo not drawn)
6. C/C=C/C1(NS(=O)(=O)c2ccc(C)cc2)CCC(C(C)(C)C)CC1 (stereo not drawn)
7. CCCCc1ccc(N2C(=O)c3cc(C)cnc3S2(=O)=O)cc1
8. O=[N+]([O-])c1ccc2[nH]cc(-c3c4ccccc4cc4[nH]c5ccc([N+](=O)[O-])cc5c34)c2c1

Completion:
> 100 µM
> 100 µM
10 µM
> 100 µM
> 100 µM
39 µM
> 100 µM
3.37 µM
